The origin of these recorded values is PubChem BioAssay (NCI).

Assay: NCI Yeast Anticancer Drug Screen. Data for the mlh1 rad18 strain (AID 175)
Details: S. cerevisiae mlh1 rad18 strain growth inhibition; at 50.0 µM (retest, dose inferred, filed as 5.0); hits give high values
This is part of a sample that, as a whole, favours compounds with a hit. Of some 79,000 tested, about 15% had one in any assay.
Use Met when the recorded growth inhibition is no lower than 90%; use Not met when it is lower.

MOLECULE	GROUP
C=C(Br)CN(CC(=C)Br)C(C)=O	Not met
CCN(CC)CCCNc1cccc2ccc(OC)nc12	Not met
CC(=O)C1(O)C(Br)CC2C3CC=C4CC(O)CCC4(C)C3CCC21C (configuration not stated)	Met
C=CCC1(OC(C)=O)CC2C(=O)C(=O)C(C1)N2OC(=O)c1ccccc1 (configuration not stated)	Met
COc1ccc(/C(C#N)=C(/N)SCc2ccccc2Cl)cc1	Not met
c1ccc(CSc2nnc(SCc3ccccc3)c3[nH]cnc23)cc1	Not met
CN(C)C(C)(C)CCNc1c2ccccc2nc2cccc([N+](=O)[O-])c12	Met
O=C(C[P+](c1ccccc1)(c1ccccc1)c1ccccc1)c1ccc(Br)cc1	Met
N#CC(CCCCl)(c1ccccc1)c1ccccc1	Not met
COC12CC(=O)C(C(C)=O)=C(O)C1(C)c1c(OC(C)=O)c(C)c(O)c(C(C)=O)c1O2 (configuration not stated)	Not met
O=C1c2ccccc2C(=O)c2sc(Nc3ccc([N+](=O)[O-])cc3)nc21	Met
Nc1ccccc1SC(/C=C/NNC1=NC(c2ccccc2)C(c2ccccc2)=NN1)c1ccccc1 (configuration not stated)	Not met
CSc1ccc(/C=C2/C[N+](C)(C)C/C(=C/c3ccc(SC)cc3)C2=O)cc1	Not met
CC(=O)NNc1nc(C)c(C(=O)NNC(=O)C(=O)Nc2c(C)cccc2C(C)C)s1	Not met
CC(=O)Nc1ccccc1C(O)(c1ccccc1)c1ccccc1	Not met
O=[N+]([O-])/C(C(Cl)=C(Cl)Cl)=C(/Nc1ccccc1)SCc1ccccc1	Met
Oc1cc(Br)cc2cccnc12	Met
Cc1noc(NS(=O)(=O)c2ccc(N=Nc3cc(N=Nc4ccc(S(=O)(=O)Nc5onc(C)c5C)cc4)c4c(NC(=O)C(Cl)Cl)cccc4c3O)cc2)c1C (tested in a mixture with another compound)	Not met
C[C@]12CC[C@H]3[C@@H](CCC4=CC(=O)CC[C@@]43C)[C@@H]1CC[C@@H]2O[Si](O[C@H]1CC[C@H]2[C@@H]3CCC4=CC(=O)CC[C@]4(C)[C@H]3CC[C@]12C)(O[C@H]1CC[C@H]2[C@@H]3CCC4=CC(=O)CC[C@]4(C)[C@H]3CC[C@]12C)c1ccccc1	Not met
O=C(C=P(c1ccccc1)(c1ccccc1)c1ccccc1)c1ccc(Cl)cc1	Met
Cc1cc(OC(=O)CCl)ccc1C(C)(C)C	Not met
O=C(O)/C=C/C(=O)NNc1nc2ccccc2s1	Not met
COC(=O)c1c(C(N)=O)c(C)n(NC(=O)Nc2ccccc2)c1C	Met
NC(=O)NOC(=O)c1ccccc1	Met
NCCSC1(O)C(=O)c2ccccc2C1=O	Not met
CC(C)C(CC(C)(C)C)OC(=O)Nc1cccc2ccccc12 (configuration not stated)	Met
CN(C)c1ccc(/C=C/c2ccnc3ccccc23)c(O)c1	Not met
CCN(CC)CCOc1ccc(-c2cc(-c3ccccc3)nc(N)n2)cc1	Met
O=[N+]([O-])c1ccc(CN2CCN(c3nccs3)CC2)cc1	Not met
CCCCCCCCCCCCCCCC[NH][Ge]([NH]CCCCCCCCCCCCCCCC)([NH]CCCCCCCCCCCCCCCC)[NH]CCCCCCCCCCCCCCCC	Met
CC(=O)c1ccc([N+](=O)[O-])o1	Met
COc1cc(/C=C2\S/C(=N/Nc3nc(-c4ccc(Br)cc4)cs3)NC2=O)cc(OC)c1OC	Not met
CCCCCCCCCCCc1nnc(N)o1	Met
Nc1ccc2c(SCCCCCCCCSc3c4ccccc4nc4cc(N)ccc34)c3ccccc3nc2c1	Met
OCN(CO)c1ccc2c(c1)Cc1cc(F)ccc1-2	Met
